Documented kon across a set of binders
# target: T1, mature human TGF-β1 (human, UniProt P01137 279-390)
# T1 construct: Bought protein (R&D Systems, Cat # 240-B/CF); also called TGF Beta 1; TGF-b1
# T1 sequence (P01137 279-390 limits assumed): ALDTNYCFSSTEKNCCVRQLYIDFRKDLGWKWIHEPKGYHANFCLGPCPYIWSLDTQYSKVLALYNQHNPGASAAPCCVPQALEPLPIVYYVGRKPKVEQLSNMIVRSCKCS
# assay.method.text: BIAcore 2000 SPR, antibody captured on Protein A, TGF-β injected
# Procedure: Alternate methods of measuring kinetic constants are known, for example: affinity of an invention antibody for TGF-β1 (R&D Systems, Cat # 240-B/CF), TGF-β2 (RDI, Cat #RDI-1035), and TGF-β3 (RDI, Cat # RDI-1036/CF) is measured by BIAcore® 2000. Binding affinity measurements for full-length monoclonal antibodies of the invention are determined using Biacore. […] Binding is evaluated using multiple analytical cycles. […]

mAb 12.7 (antibody, human IgG4 S228P, kappa, V domains shown, Full-length monoclonal antibody, made by linking the Fab to an IgG4 Fc region) VH: QVQLVQSGAEVKKPGASVKVSCKASGYTFTSEWMNWVRQAPGQGLEWMGQIFPALGSTNYNEMYEGRVTMTTDTSTSTAYMELRSLRSDDTAVYYCARGIGNYALDAMDYWGQGTLVTVSS VL: DIQMTQSPSSLSASVGDRVTITCRASESVDFYGNSFMHWYQQKPGKAPKLLIYLASNLESGVPSRFSGSGSGTDFTLTISSLQPEDFATYYCQQNIEDPLTFGGGTKVEIKR : > 5e+07 M⁻¹ s⁻¹

Entry mAb 4.17 (antibody, human IgG4 S228P, kappa, V domains shown, Full-length monoclonal antibody, made by linking the Fab to an IgG4 Fc region) VH: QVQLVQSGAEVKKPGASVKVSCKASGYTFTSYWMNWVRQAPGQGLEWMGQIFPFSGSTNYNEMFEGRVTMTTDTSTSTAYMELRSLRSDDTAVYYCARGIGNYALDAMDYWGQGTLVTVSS VL: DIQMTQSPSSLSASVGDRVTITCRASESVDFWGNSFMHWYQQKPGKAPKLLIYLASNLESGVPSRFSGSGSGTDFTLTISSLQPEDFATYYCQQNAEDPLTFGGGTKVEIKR , kon reported as > 5e+07 M⁻¹ s⁻¹

Entry mAb 12.8 (antibody, human IgG4 S228P, kappa, V domains shown, Full-length monoclonal antibody, made by linking the Fab to an IgG4 Fc region) VH: QVQLVQSGAEVKKPGASVKVSCKASGYTFTSYWMNWVRQAPGQGLEWMGQIFPALGSTNYNEMFEGRVTMTTDTSTSTAYMELRSLRSDDTAVYYCARGIGNYALDAMDYWGQGTLVTVSS VL: DIQMTQSPSSLSASVGDRVTITCRASESVDWYGNSFMHWYQQKPGKAPKLLIYYASNLESGVPSRFSGSGSGTDFTLTISSLQPEDFATYYCQQNAEDPLTFGGGTKVEIKR , kon reported as > 5e+07 M⁻¹ s⁻¹

Entry mAb 3.A (antibody, human IgG4 S228P, kappa, V domains shown, Full-length monoclonal antibody, made by linking the Fab to an IgG4 Fc region) VH: QVQLVQSGAEVKKPGASVKVSCKASGYTFTSYWMNWVRQAPGQGLEWMGQIFPASGSTNYGEMFEGRVTMTTDTSTSTAYMELRSLRSDDTAVYYCARGIGNYALDAMDYWGQGTLVTVSS VL: DIQMTQSPSSLSASVGDRVTITCRASESVDFWGNSFMHWYQQKPGKAPKLLIYLASNLESGVPSRFSGSGSGTDFTLTISSLQPEDFATYYCQQNIEDPLTFGGGTKVEIKR , kon reported as > 5e+07 M⁻¹ s⁻¹

src = patent US20090155285A1
